- target-or-test-system: CSNK1A1 (human) (UniProt P48729)
- Sequence (P48729 whole entry, looked up): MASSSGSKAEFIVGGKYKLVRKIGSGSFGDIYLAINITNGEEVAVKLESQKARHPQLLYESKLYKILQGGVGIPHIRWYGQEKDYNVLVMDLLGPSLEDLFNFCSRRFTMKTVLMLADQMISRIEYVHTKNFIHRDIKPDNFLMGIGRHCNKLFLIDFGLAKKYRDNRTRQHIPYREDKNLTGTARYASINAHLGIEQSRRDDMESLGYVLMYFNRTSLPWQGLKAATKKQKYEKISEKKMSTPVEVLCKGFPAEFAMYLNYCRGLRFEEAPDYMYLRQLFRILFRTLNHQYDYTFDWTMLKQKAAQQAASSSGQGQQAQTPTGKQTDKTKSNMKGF
- assay-notes: radiometric filter-binding kinase assay, Kinase HotSpot
- setup-conditions: compound 0.5 µM; ATP 10 µM
Returns True if the recorded residual activity is greater than or equal to 90%, and False otherwise.

[[record]]
compound = "O=C1Nc2ccccc2/C1=C\\c1c(Cl)[nH]c2ccccc12"
assigned_label = "True"

[[record]]
compound = "O=c1cc(-c2cccc3c2Sc2ccccc2S3)oc(N2CCOCC2)c1"
assigned_label = "True"

[[record]]
compound = "CCN1/C(=C/C(C)=O)Sc2ccc(OC)cc21"
assigned_label = "False"

[[record]]
compound = "COc1ccc(-c2cnc3c(-c4ccsc4)cnn3c2)cc1"
assigned_label = "True"

[[record]]
compound = "CC(C)n1cnc2c(Nc3cccc(Cl)c3)nc(NCCO)nc21"
assigned_label = "False"


Request: Quick check, residual activity >= 90%? Nc1nc(Nc2ccc(S(N)(=O)=O)cc2)nn1C(=O)c1c(F)cccc1F
Response: True

Request: Quick check, residual activity >= 90%? O=C(NC(NC(=S)Nc1ccc(F)c([N+](=O)[O-])c1)C(Cl)(Cl)Cl)C(c1ccccc1)c1ccccc1 (stereo not drawn)
Response: True

Request: Quick check, residual activity >= 90%? O=C1Nc2cc(Br)ccc2/C1=C1/Nc2ccccc2/C1=N\O
Response: True

###

- target-or-test-system: VRK1 (human)
- assay-notes: radiometric filter-binding kinase assay, Kinase HotSpot
- setup-conditions: compound 0.5 µM; ATP 10 µM
property-name: residual activity (%)
API: value field is a number in %; no unit string.

[[record]]
query_smiles = "O=C1Nc2cc(Br)ccc2/C1=C1/Nc2ccccc2/C1=N\\O"
property_name = "residual activity"
readout_units = "%"
observed = 98


Request: Look up residual activity: Oc1ccc(-c2nc(-c3ccc(F)cc3)c(-c3ccncc3)[nH]2)cc1
Response: 98.7

Request: Look up residual activity: Nc1nc(Nc2ccc(S(N)(=O)=O)cc2)nn1C(=S)Nc1c(F)cccc1F
Response: 94.6

Request: Look up residual activity: CCN1/C(=C/C(C)=O)Sc2ccc(OC)cc21
Response: 98.2

Request: Look up residual activity: Cc1cc2ncc(-c3ccccc3)nc2cc1C
Response: 101

Request: Look up residual activity: O=C(Nc1ccc(Cl)cc1)c1ccccc1NCc1ccncc1
Response: 104

Request: Look up residual activity: Nc1nc(Nc2ccc(S(N)(=O)=O)cc2)nn1C(=O)c1c(F)cccc1F
Response: 90.4

###

- target-or-test-system: MAPK12 (human) (UniProt P53778)
- Sequence (P53778 whole entry, looked up): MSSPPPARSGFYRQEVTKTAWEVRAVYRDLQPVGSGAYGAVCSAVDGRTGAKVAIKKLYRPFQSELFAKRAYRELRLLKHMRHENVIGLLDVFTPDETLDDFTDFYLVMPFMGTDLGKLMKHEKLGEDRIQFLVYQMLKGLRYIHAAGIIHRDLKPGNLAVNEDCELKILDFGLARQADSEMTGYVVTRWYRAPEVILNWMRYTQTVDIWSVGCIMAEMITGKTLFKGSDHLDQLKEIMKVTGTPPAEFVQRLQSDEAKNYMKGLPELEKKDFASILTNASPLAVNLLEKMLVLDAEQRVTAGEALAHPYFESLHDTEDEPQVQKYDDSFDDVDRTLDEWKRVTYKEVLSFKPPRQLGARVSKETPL
- assay-notes: radiometric filter-binding kinase assay, Kinase HotSpot
- setup-conditions: compound 0.5 µM; ATP 10 µM
Entries and their residual activity values follow.
API: value field is a number in %; no unit string.

Examples with their reported residual activity follow.
[[record]]
query_smiles = "COc1cc2nccc(Oc3ccc(NC(=S)NC(=O)c4ccccc4C)cc3)c2cc1OC"
property_name = "residual activity"
readout_units = "%"
observed = 96.8

[[record]]
query_smiles = "Oc1ccc(-c2nc(-c3ccc(F)cc3)c(-c3ccncc3)[nH]2)cc1"
property_name = "residual activity"
readout_units = "%"
observed = 102

[[record]]
query_smiles = "Nc1n[nH]c2nnc(-c3c(-c4ccccc4)nn4ccccc34)cc12"
property_name = "residual activity"
readout_units = "%"
observed = 104

[[record]]
query_smiles = "CC(C)[C@H](CO)Nc1nc(Nc2cccc(Cl)c2)c2ncn(C(C)C)c2n1"
property_name = "residual activity"
readout_units = "%"
observed = 106

[[record]]
query_smiles = "Cc1ccc(NC(=O)c2ccc(CN3CCN(C)CC3)cc2)cc1Nc1nc(-c2cccnc2)cs1"
property_name = "residual activity"
readout_units = "%"
observed = 96.9


Request: What is its residual activity for MAPK12 (human) (UniProt P53778)? Entry: COc1cc2ncnc(Nc3ccc(F)c(Cl)c3)c2cc1OCCCN1CCOCC1
Response: 97.5

Request: What is its residual activity for MAPK12 (human) (UniProt P53778)? Entry: O=c1cc(-c2cccc3c2Sc2ccccc2S3)oc(N2CCOCC2)c1
Response: 114

Request: What is its residual activity for MAPK12 (human) (UniProt P53778)? Entry: NC(=O)c1ccc(N(C(N)=O)c2c(F)cccc2F)nc1-c1ccc(F)cc1F
Response: 92.1

Request: What is its residual activity for MAPK12 (human) (UniProt P53778)? Entry: O=C1Nc2ccccc2/C1=C\c1c(Cl)[nH]c2ccccc12
Response: 93

Request: What is its residual activity for MAPK12 (human) (UniProt P53778)? Entry: COc1ccc(-c2cnc3c(-c4ccsc4)cnn3c2)cc1
Response: 94.8

Request: What is its residual activity for MAPK12 (human) (UniProt P53778)? Entry: C#Cc1cccc(Nc2ncnc3cc(OCCOC)c(OCCOC)cc23)c1
Response: 97.8

Request: What is its residual activity for MAPK12 (human) (UniProt P53778)? Entry: CC(C)(C)c1nc2c3ccc(F)cc3c3c(=O)[nH]ccc3c2[nH]1
Response: 97.9

Request: What is its residual activity for MAPK12 (human) (UniProt P53778)? Entry: Nc1nc(Nc2ccc(S(N)(=O)=O)cc2)nn1C(=S)Nc1c(F)cccc1F
Response: 95.2

Request: What is its residual activity for MAPK12 (human) (UniProt P53778)? Entry: CC(C)n1cnc2c(Nc3cccc(Cl)c3)nc(NCCO)nc21
Response: 102

Request: What is its residual activity for MAPK12 (human) (UniProt P53778)? Entry: O=c1cc(N2CCNCC2)oc2c(-c3ccccc3)cccc12
Response: 92

Request: What is its residual activity for MAPK12 (human) (UniProt P53778)? Entry: O=C1Nc2cc(Br)ccc2/C1=C1/Nc2ccccc2/C1=N\O
Response: 93.8
